target: Histamine H1 receptor (Cavia porcellus)
Sequence (P31389 whole entry): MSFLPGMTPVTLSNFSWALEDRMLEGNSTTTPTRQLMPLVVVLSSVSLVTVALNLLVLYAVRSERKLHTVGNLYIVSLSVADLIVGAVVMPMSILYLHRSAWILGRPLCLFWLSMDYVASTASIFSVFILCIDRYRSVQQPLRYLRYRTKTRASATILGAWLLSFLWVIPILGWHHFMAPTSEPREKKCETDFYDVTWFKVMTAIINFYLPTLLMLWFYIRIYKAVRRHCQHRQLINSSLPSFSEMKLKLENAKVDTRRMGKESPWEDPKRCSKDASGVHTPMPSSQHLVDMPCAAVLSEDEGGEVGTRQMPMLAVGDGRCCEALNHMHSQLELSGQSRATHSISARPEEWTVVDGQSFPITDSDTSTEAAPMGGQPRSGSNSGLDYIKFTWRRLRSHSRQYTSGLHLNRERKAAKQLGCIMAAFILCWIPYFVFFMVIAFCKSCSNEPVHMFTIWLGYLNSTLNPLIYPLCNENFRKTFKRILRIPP
experiment: Displacement of [3H]mepyramine from histamine H1 receptor in guinea pig cerebellum membranes
Type: cell membranes, Membrane
result type: IC50

>  <structure notation>
CCOCCn1cc(C2CCN(Cc3cccc(C(=O)O)c3)CC2)c2ccccc21

>  <test value>
0.218 µM (antagonist)

$$$$
>  <structure notation>
CCOCCn1cc(C2CCN(CCOc3ccccc3C(=O)O)CC2)c2cccc(Br)c21

>  <test value>
0.08 µM (antagonist)

$$$$
>  <structure notation>
O=C(O)c1ccccc1OCCN1CCC(c2cn(Cc3ccc(Cl)s3)c3cc(F)ccc23)CC1

>  <test value>
0.028 µM (antagonist)

$$$$
>  <structure notation>
CCOCCn1cc(C2CCN(CCOc3cc(OC)ccc3C(=O)O)CC2)c2ccccc21

>  <test value>
0.034 µM (antagonist)

$$$$

Next compound, please.
Returns the measured IC50 for the input compound. Input: `CCOCCn1cc(C2CCN(Cc3ccccc3C(=O)O)CC2)c2ccccc21`
0.33 µM (antagonist)

====

experiment: Volume of distribution at steady state in Wistar rat at 1 mg/kg, iv after 8 hrs
Type: ADME, organism-based
Parameters: dose 1 mg/kg, route intravenous
measurement parameters: in vivo, read-out: Vss
result type: Vd (L/kg)
Report as a plain number; the unit L/kg is understood.

>  <structure notation>
O=C(O)c1ccccc1OCCN1CCC(c2cn(CCC3OCCO3)c3ccccc23)CC1

>  <Vd [L/kg]>
0.5

$$$$
>  <structure notation>
COc1ccc(CN2CCC(c3cn(Cc4cccs4)c4cc(F)ccc34)CC2)cc1C(=O)O

>  <Vd [L/kg]>
1.1

$$$$

Next compound, please.
Returns the measured Vd for the input compound. Input: `COc1ccc(CN2CCC(c3cn(Cc4cccs4)c4ccccc34)CC2)cc1C(=O)O`
1.8

====

Entries and their IC50
target: Adrenergic receptor alpha-1 (Rattus norvegicus, UniProt P15823+P23944+P43140)
experiment: Displacement of [3H]prazosin from adrenergic alpha-1 receptor in rat brain membranes
Format: cell membranes

>  <molecule>
CCOCCn1cc(C2CCN(CCOc3ccccc3C(=O)O)CC2)c2cc(OC)ccc21

>  <IC50>
> 10 µM

$$$$
>  <molecule>
CCCCn1cc(C2CCN(CCOc3ccccc3C(=O)O)CC2)c2ccc(F)cc21

>  <IC50>
> 10 µM

$$$$
>  <molecule>
CCOCCn1cc(C2CCN(CCOc3ccccc3C(=O)O)CC2)c2ccccc21

>  <IC50>
10 µM

$$$$
>  <molecule>
O=C(O)c1ccccc1OCCN1CCC(c2cn(CC3CC3)c3ccccc23)CC1

>  <IC50>
> 10 µM

$$$$
>  <molecule>
COCCn1cc(C2CCN(Cc3ccc(OC)c(C(=O)O)c3)CC2)c2ccccc21

>  <IC50>
> 10 µM

$$$$

Returns the measured IC50 for the input molecule. Input: `CCOCCn1cc(C2CCN(CCOc3ccccc3C(=O)O)CC2)c2ccc(C(F)(F)F)cc21`
6.9 µM

Returns the measured IC50 for the input molecule. Input: `CCOCCn1cc(C2CCN(Cc3ccc(F)c(C(=O)O)c3)CC2)c2ccccc21`
> 10 µM

Returns the measured IC50 for the input molecule. Input: `CCOCCn1cc(C2CCN(Cc3cccc(OCC(=O)O)c3)CC2)c2ccccc21`
> 10 µM

Returns the measured IC50 for the input molecule. Input: `CCOCCn1cc(C2CCN(CCOc3cccc(F)c3C(=O)O)CC2)c2ccccc21`
10 µM

Returns the measured IC50 for the input molecule. Input: `COc1ccc(CN2CCC(c3cn(Cc4cccs4)c4ccccc34)CC2)cc1C(=O)O`
> 10 µM

Returns the measured IC50 for the input molecule. Input: `O=C(O)c1ccccc1OCCN1CCC(c2cn(Cc3ccco3)c3cc(F)ccc23)CC1`
> 10 µM

Returns the measured IC50 for the input molecule. Input: `CCOCCn1cc(C2CCN(CCOc3cccc(C(=O)O)c3)CC2)c2ccccc21`
2 µM

Returns the measured IC50 for the input molecule. Input: `CCOCCn1cc(C2CCN(CCOc3ccccc3C(=O)O)CC2)c2cc(Br)ccc21`
3.6 µM

Returns the measured IC50 for the input molecule. Input: `CCOCCn1cc(C2CCN(Cc3ccc(OCC(=O)O)cc3)CC2)c2ccccc21`
> 10 µM

Returns the measured IC50 for the input molecule. Input: O=C(O)c1ccccc1OCCN1CCC(c2cn(CCC3COCCO3)c3ccccc23)CC1 (stereo not given)
6.2 µM

Returns the measured IC50 for the input molecule. Input: `CCOCCn1cc(C2CCN(CCOc3ccsc3C(=O)O)CC2)c2ccccc21`
< 10 µM

Returns the measured IC50 for the input molecule. Input: `O=C(O)c1ccccc1OCCN1CCC(c2cn(Cc3ccc(Cl)s3)c3cc(F)ccc23)CC1`
> 10 µM

====

Entries and their IC50
target: Adrenergic receptor alpha-1 (Rattus norvegicus, UniProt P15823+P23944+P43140)
experiment: Displacement of [3H]prazosin from adrenergic alpha-1 receptor in rat brain membranes
Assay type: cell membranes

Answered examples (3):
>  <structure notation>
C=CCn1cc(C2CCN(CCOc3ccccc3C(=O)O)CC2)c2ccccc21

>  <test value>
> 10 µM

$$$$
>  <structure notation>
CCCCn1cc(C2CCN(CCOc3ccccc3C(=O)O)CC2)c2ccccc21

>  <test value>
> 10 µM

$$$$
>  <structure notation>
CCOCCn1cc(C2CCN(CCOc3c(Br)cc(Br)cc3C(=O)O)CC2)c2ccccc21

>  <test value>
6.9 µM

$$$$

Form: Entry = `O=C(O)c1ccccc1OCCN1CCC(c2cn(CCC3OCCO3)c3ccccc23)CC1` | System = Adrenergic receptor alpha-1 (Rattus norvegicus, UniProt P15823+P23944+P43140) | IC50 = ____
6.5 µM

Form: Entry = `O=C(O)c1cccc(CN2CCC(c3cn(Cc4ccco4)c4ccccc34)CC2)c1` | System = Adrenergic receptor alpha-1 (Rattus norvegicus, UniProt P15823+P23944+P43140) | IC50 = ____
> 10 µM

Form: Entry = `CCOCCn1cc(C2CCN(CCOc3ccccc3C(=O)O)CC2)c2cccc(Br)c21` | System = Adrenergic receptor alpha-1 (Rattus norvegicus, UniProt P15823+P23944+P43140) | IC50 = ____
10 µM

Form: Entry = `O=C(O)c1ccccc1OCCN1CCC(c2cn(CC3CC3)c3cc(F)ccc23)CC1` | System = Adrenergic receptor alpha-1 (Rattus norvegicus, UniProt P15823+P23944+P43140) | IC50 = ____
> 10 µM

Form: Entry = `O=C(O)c1ccccc1OCCN1CCC(c2cn(CCc3ccccn3)c3ccccc23)CC1` | System = Adrenergic receptor alpha-1 (Rattus norvegicus, UniProt P15823+P23944+P43140) | IC50 = ____
> 10 µM

Form: Entry = `CCOCCn1cc(C2CCN(Cc3ccccc3OCC(=O)O)CC2)c2ccccc21` | System = Adrenergic receptor alpha-1 (Rattus norvegicus, UniProt P15823+P23944+P43140) | IC50 = ____
> 10 µM

Form: Entry = `COCCn1cc(C2CCN(Cc3cccc(C(=O)O)c3)CC2)c2ccc(F)cc21` | System = Adrenergic receptor alpha-1 (Rattus norvegicus, UniProt P15823+P23944+P43140) | IC50 = ____
> 10 µM

Form: Entry = `O=C(O)c1cccc(CN2CCC(c3cn(Cc4cccs4)c4ccccc34)CC2)c1` | System = Adrenergic receptor alpha-1 (Rattus norvegicus, UniProt P15823+P23944+P43140) | IC50 = ____
> 10 µM

====

target: Histamine H1 receptor (Mus musculus)
experiment: Ex vivo displacement of [3H]mepyramine from brain histamine H1 receptor in orally dosed Swiss Albino mouse
Format: functional, organism-based
result type: ED50 (mg/kg)
Report as a plain number; the unit mg/kg is understood.

Returns the measured ED50 for the input compound. Input: `O=C(O)c1ccccc1OCCN1CCC(c2cn(Cc3ccoc3)c3cc(F)ccc23)CC1`
19

Returns the measured ED50 for the input compound. Input: `CCCCn1cc(C2CCN(CCOc3ccccc3C(=O)O)CC2)c2ccc(F)cc21`
10

Returns the measured ED50 for the input compound. Input: `COCCn1cc(C2CCN(Cc3ccc(OC)c(C(=O)O)c3)CC2)c2ccc(F)cc21`
4

====

Entries and their Vd
experiment: Volume of distribution at steady state in Wistar rat at 1 mg/kg, iv after 8 hrs
Type: ADME, organism-based
Set-up: dose 1 mg/kg, route intravenous
measurement parameters: in vivo, read-out: Vss

Answered examples (4):
>  <structure notation>
COCCn1cc(C2CCN(CCOc3ccccc3C(=O)O)CC2)c2ccc(F)cc21

>  <Vd>
0.3 L/kg

$$$$
>  <structure notation>
CCOCCn1cc(C2CCN(CCOc3ccccc3C(=O)O)CC2)c2cc(OC)ccc21

>  <Vd>
0.5 L/kg

$$$$
>  <structure notation>
CCCCn1cc(C2CCN(CCOc3ccccc3C(=O)O)CC2)c2ccccc21

>  <Vd>
0.4 L/kg

$$$$
>  <structure notation>
CCOCCn1cc(C2CCN(CCOc3ccccc3C(=O)O)CC2)c2ccccc21

>  <Vd>
0.7 L/kg

$$$$

Returns the measured Vd for the input molecule. Input: `COCCn1cc(C2CCN(Cc3ccc(OC)c(C(=O)O)c3)CC2)c2ccccc21`
0.6 L/kg
